The reported measurements were obtained from the supplement of paper PMC9663587.

- System: MDAMB175VII
- test_details: GRmax, 72 h; higher = less effect;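 note: breast cell lines in 384-well plates, nine doses across a 10^4 range, Dye Drop imaging of viable cells vs DMSO and time-zero plates, GR 0 means no net growth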
compounds and their reported GRmax, 72 h
Units required after the number.

// known answers, use as guide
Cc1nc(Nc2ncc(C(=O)Nc3c(C)cccc3Cl)s2)cc(N2CCN(CCO)CC2)n1 [Dasatinib] (max 10 µM) : -0.714 GR
CN(C)C/C=C/C(=O)Nc1ccc(C(=O)Nc2cccc(Nc3ncc(Cl)c(-c4c[nH]c5ccccc45)n3)c2)cc1 [THZ1] (max 1 µM) : -0.438 GR
CCOc1cc2ncc(C#N)c(Nc3ccc(OCc4ccccn4)c(Cl)c3)c2cc1NC(=O)/C=C/CN(C)C [Neratinib/HKI272] (max 3.162 µM) : -0.979 GR
CCCCOc1c(C(=O)c2c(F)cc(C)cc2F)c[nH]c2nncc1-2 (max 10 µM) : -0.0619 GR
COc1ccc2c(c1)[C@]1(C[C@H]1c1ccc3c(/C=C/c4ccc(CN5C[C@@H](C)O[C@@H](C)C5)cc4)n[nH]c3c1)C(=O)N2 : 0.046 GR
CN(C)C/C=C/C(=O)Nc1ccc(C(=O)Nc2cccc(Nc3cc(-c4c[nH]c5ccccc45)ncn3)c2)cc1 [THZ-P1-2] (max 10 µM) : -0.765 GR

Lab note: next compound to report on.
Name the recorded GRmax, 72 h for CO[C@@H](C)Cn1c(=O)n(C)c2cnc3ccc(-c4cncc(C(C)(C)O)c4)cc3c21 (max 10 µM) .
-0.938 GR

====

- Test system: SUM1315
- test_details: area over the GR curve, 72 h; higher = more effect
observable: area over the GR curve (GR)
Kindly provide the numeric value in GR only, without the unit symbol.

Name the recorded area over the GR curve for CN(C)C/C=C/C(=O)Nc1ccc(O[C@@H]2CCC[C@@H](Nc3ncc(Cl)c(-c4c[nH]c5ccccc45)n3)C2)cc1 [BSJ-01-175] (max 10 µM) .
0.509

Name the recorded area over the GR curve for CNCc1ccc(-c2[nH]c3cc(F)cc4c3c2CCNC4=O)cc1 [Rucaparib] (max 10 µM) .
0.371

Name the recorded area over the GR curve for COc1cc2nccc(Oc3ccc(NC(=O)C4(C(=O)Nc5ccc(F)cc5)CC4)cc3)c2cc1OC [Cabozantinib] (max 10 µM) .
0.105

Name the recorded area over the GR curve for CO[C@H]1C[C@@H]2CC[C@@H](C)[C@@](O)(O2)C(=O)C(=O)N2CCCC[C@H]2C(=O)O[C@H]([C@H](C)C[C@@H]2CC[C@@H](OCCO)[C@H](OC)C2)CC(=O)[C@H](C)/C=C(\C)[C@@H](O)[C@@H](OC)C(=O)[C@H](C)C[C@H](C)/C=C/C=C/C=C/1C [Everolimus] (max 10 µM) .
0.454

Name the recorded area over the GR curve for C[C@@H]1COCCN1c1cc(C2([S@](C)(=N)=O)CC2)nc(-c2cc[nH]c3nccc2-3)n1 [AZD6738] (max 10 µM) .
0.0543

====

- Test system: T47D
- test_details: area over the GR curve, 72 h; higher = more effect
compounds and their reported area over the GR curve
Kindly provide the numeric value in GR only, without the unit symbol.

// known answers, use as guide
CNc1nc(-c2ccc3c(N)n[nH]c3c2)cc(N2C[C@@H](C(=O)NC3CCCCC3)CC[C@H]2C)n1 (max 10 µM) : 0.394
CC[C@@]1(O)C(=O)OCc2c1cc1n(c2=O)Cc2cc3c(CN(C)C)c(O)ccc3nc2-1 [Topotecan] (max 10 µM) : 0.959
CC(=O)c1c(C)c2cnc(Nc3ccc(N4CCN(CCOCCOCCOCCNC(=O)COc5cccc6c5C(=O)N(C5CCC(=O)NC5=O)C6=O)CC4)cn3)nc2n(C2CCCC2)c1=O (stereo not drawn) [BSJ-03-123] (max 10 µM) : 0.746
CC(C)Nc1cc(-c2c[nH]c(C(=O)N[C@H](CO)c3cccc(Cl)c3)c2)c(Cl)cn1 [BVD523] (max 10 µM) : 0.185
Nc1cc(C(F)(F)F)c(-c2cc(N3CCOCC3)nc(N3CCOCC3)n2)cn1 [Buparlisib/NVP-BKM120] (max 10 µM) : 0.482
COc1ccc2c(c1)[C@]1(C[C@H]1c1ccc3c(/C=C/c4ccc(CN5C[C@@H](C)O[C@@H](C)C5)cc4)n[nH]c3c1)C(=O)N2 : 0.79
COc1cc([C@@H]2c3cc4c(cc3[C@@H](O[C@@H]3O[C@@H]5CO[C@@H](C)O[C@H]5[C@H](O)[C@H]3O)[C@H]3COC(=O)[C@H]23)OCO4)cc(OC)c1O [Etoposide] (max 10 µM) : 0.666
O=C(c1cc(Cc2n[nH]c(=O)c3ccccc23)ccc1F)N1CCN(C(=O)C2CC2)CC1 [Olaparib/AZD2281] (max 10 µM) : 0.0229

Missing value: area over the GR curve, T47D, entry CCCCOc1c(C(=O)c2c(F)cc(C)cc2F)c[nH]c2nncc1-2 (max 10 µM) . Fill in?
0.649

Missing value: area over the GR curve, T47D, entry C[C@@H]1COCCN1c1cc(C2([S@](C)(=N)=O)CC2)nc(-c2cc[nH]c3nccc2-3)n1 [AZD6738] (max 10 µM) . Fill in?
-0.205

Missing value: area over the GR curve, T47D, entry COc1cccc(OCCCN)c1-c1cc(Nc2cnc(C#N)cn2)n[nH]1 . Fill in?
0.18

Missing value: area over the GR curve, T47D, entry CN(C)C/C=C/C(=O)Nc1ccc(O[C@@H]2CCC[C@@H](Nc3ncc(Cl)c(-c4c[nH]c5ccccc45)n3)C2)cc1 [BSJ-01-175] (max 10 µM) . Fill in?
0.537

Missing value: area over the GR curve, T47D, entry CC(=O)O[C@H]1C(=O)[C@@]2(C)[C@H]([C@H](OC(=O)c3ccccc3)[C@]3(O)C[C@H](OC(=O)[C@H](O)[C@@H](NC(=O)c4ccccc4)c4ccccc4)C(C)=C1C3(C)C)[C@]1(OC(C)=O)CO[C@@H]1C[C@@H]2O [Paclitaxel] (max 1 µM) . Fill in?
0.661

====

compounds and their reported area over the GR curve
- Tested on: HCC1569
- test_details: area over the GR curve, 72 h; higher = more effect;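 note: Dye Drop or Deep Dye Drop imaging of viable cells in 384-well plates (Hoechst nuclei, LIVE/DEAD dye), nine half-log doses, GR normalized to DMSO controls and time-zero plates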

// known answers, use as guide
O=C(CCCCCCC(=O)Nc1ccccc1)NO [Vorinostat] (max 10 µM) : 0.163 GR
CO[C@@H](C)Cn1c(=O)n(C)c2cnc3ccc(-c4cncc(C(C)(C)O)c4)cc3c21 (max 10 µM) : 0.768 GR
Cc1nc(Nc2ncc(C(=O)Nc3c(C)cccc3Cl)s2)cc(N2CCN(CCO)CC2)n1 [Dasatinib] (max 10 µM) : 0.483 GR

Missing value: area over the GR curve, HCC1569, entry CC(C)NC[C@@H](C(=O)N1CCN(c2ncnc3c2[C@H](C)C[C@H]3O)CC1)c1ccc(Cl)cc1 [Ipatasertib/GDC0068] (max 10 µM) . Fill in?
0.227 GR

Missing value: area over the GR curve, HCC1569, entry CCOc1cc2ncc(C#N)c(Nc3ccc(OCc4ccccn4)c(Cl)c3)c2cc1NC(=O)/C=C/CN(C)C [Neratinib/HKI272] (max 3.162 µM) . Fill in?
0.397 GR

Missing value: area over the GR curve, HCC1569, entry CC1(N)CCN(c2cnc(-c3cccc(Cl)c3Cl)c(N)n2)CC1 [SHP099] (max 10 µM) . Fill in?
-0.114 GR

Missing value: area over the GR curve, HCC1569, entry COc1cccc(OCCCN)c1-c1cc(Nc2cnc(C#N)cn2)n[nH]1 . Fill in?
0.355 GR

Missing value: area over the GR curve, HCC1569, entry CNC(=O)c1cccc(-c2ccc3c(N4CCOC[C@@H]4C)nc(N4CCOC[C@@H]4C)nc3n2)c1 [AZD2014] (max 10 µM) . Fill in?
0.625 GR

Missing value: area over the GR curve, HCC1569, entry CN(C)C/C=C/C(=O)Nc1ccc(O[C@@H]2CCC[C@@H](Nc3ncc(Cl)c(-c4c[nH]c5ccccc45)n3)C2)cc1 [BSJ-01-175] (max 10 µM) . Fill in?
0.907 GR

Missing value: area over the GR curve, HCC1569, entry COc1cc2nccc(Oc3ccc(NC(=O)C4(C(=O)Nc5ccc(F)cc5)CC4)cc3)c2cc1OC [Cabozantinib] (max 10 µM) . Fill in?
0.0157 GR

Missing value: area over the GR curve, HCC1569, entry CC(=O)c1c(C)c2cnc(Nc3ccc(N4CCN(CCOCCOCCOCCNC(=O)COc5cccc6c5C(=O)N(C5CCC(=O)NC5=O)C6=O)CC4)cn3)nc2n(C2CCCC2)c1=O (stereo not drawn) [BSJ-03-123] (max 10 µM) . Fill in?
0.183 GR

Missing value: area over the GR curve, HCC1569, entry CNCc1ccc(-c2[nH]c3cc(F)cc4c3c2CCNC4=O)cc1 [Rucaparib] (max 10 µM) . Fill in?
-0.0162 GR

Missing value: area over the GR curve, HCC1569, entry CCc1cncnc1N1CCN(Cc2nc3ccc(C(F)(F)F)cc3[nH]2)CC1 (max 10 µM) . Fill in?
0.0337 GR
